Measured IC50 (UniProtKB O60218)
Sequence (O60218 whole entry): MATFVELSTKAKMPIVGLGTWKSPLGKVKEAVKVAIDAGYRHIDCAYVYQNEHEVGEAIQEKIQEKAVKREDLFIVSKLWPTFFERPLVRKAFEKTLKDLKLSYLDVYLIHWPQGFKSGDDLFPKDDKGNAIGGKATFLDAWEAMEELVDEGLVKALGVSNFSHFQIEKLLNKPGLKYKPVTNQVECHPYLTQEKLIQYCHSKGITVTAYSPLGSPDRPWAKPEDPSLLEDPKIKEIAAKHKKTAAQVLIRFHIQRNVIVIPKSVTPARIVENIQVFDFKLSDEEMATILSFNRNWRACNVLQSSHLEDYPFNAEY
OUTCOME MEASURE: IC50

| COMPOUND | TEST VALUE |
| --- | --- |
| O=C(O)C1(c2ccc(-c3cc(Cl)cc(Cl)c3)c(F)c2)CC1 | > 10 µM |
| CC(C(=O)O)c1ccc(-c2ccccc2)c(F)c1 (stereo not drawn) [FLURBIPROFEN] | > 10 µM |
| COc1cccc(-c2ccc(C(C)C(=O)O)cc2C(F)(F)F)c1 (racemic) | > 10 µM |

---

Each item that follows carries a reported pIC50.
Molecular target: Aldo-keto reductase family 1 member C3 (Homo sapiens)
Test: Inhibition of human recombinant AKR1C3 transfected in Escherichia coli BL21 (DE3) pLysS competent cells using S-tetralol as substrate assessed as inhibition of NADP+ dependent substrate oxidation incubated for 10 mins by fluorescence microplate reader assay
pIC50: −log10 of the molar value.

| COMPOUND | pIC50 |
| --- | --- |
| Cc1ccc(-c2ccc(C(C)C(=O)O)cc2F)cc1F (racemic) | 6.96 |
| CC(C(=O)O)c1ccc(-c2cccnc2)c(F)c1 (racemic) | 6.82 |
| CCC(C(=O)O)c1ccc(-c2cc(C)cc(C)c2)c(F)c1 (racemic) | 6.92 |
| CCC(C(=O)O)c1ccc(-c2ccc3c(c2)OCO3)c(C(F)(F)F)c1 (racemic) | 7.10 |

---

Each item that follows carries a reported pIC50.
Molecular target: Aldo-keto reductase family 1 member C3 (Homo sapiens, UniProt P42330)
Sequence (P42330 whole entry): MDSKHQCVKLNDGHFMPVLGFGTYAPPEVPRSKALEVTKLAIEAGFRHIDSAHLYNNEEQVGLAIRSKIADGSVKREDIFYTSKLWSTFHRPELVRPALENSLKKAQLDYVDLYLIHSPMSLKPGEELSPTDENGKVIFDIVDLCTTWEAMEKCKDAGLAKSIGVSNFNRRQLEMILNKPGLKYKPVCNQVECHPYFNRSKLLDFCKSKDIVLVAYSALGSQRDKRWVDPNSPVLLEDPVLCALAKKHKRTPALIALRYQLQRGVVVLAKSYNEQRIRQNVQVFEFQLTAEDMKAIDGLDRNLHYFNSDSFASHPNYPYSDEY
Test: Inhibition of human recombinant AKR1C3 transfected in Escherichia coli BL21 (DE3) pLysS competent cells using S-tetralol as substrate assessed as inhibition of NADP+ dependent substrate oxidation incubated for 10 mins by fluorescence microplate reader assay
pIC50: −log10 of the molar value.
OUTCOME MEASURE: pIC50

| MOLECULE | TEST VALUE |
| --- | --- |
| O=C(O)C1(c2ccc(-c3cc(C(F)(F)F)cc(C(F)(F)F)c3)c(F)c2)CC1 | 7.97 |
| CC(C(=O)O)c1ccc(-c2cccc(C(=O)O)c2)c(C(F)(F)F)c1 (racemic) | 7.10 |
| Cc1ccc(-c2ccc(C(C)C(=O)O)cc2C(F)(F)F)cc1 (racemic) | 6.72 |

---

Each item that follows carries a reported IC50.
Target: Aldo-keto reductase family 1 member C2 (Homo sapiens)
Sequence (P52895 whole entry): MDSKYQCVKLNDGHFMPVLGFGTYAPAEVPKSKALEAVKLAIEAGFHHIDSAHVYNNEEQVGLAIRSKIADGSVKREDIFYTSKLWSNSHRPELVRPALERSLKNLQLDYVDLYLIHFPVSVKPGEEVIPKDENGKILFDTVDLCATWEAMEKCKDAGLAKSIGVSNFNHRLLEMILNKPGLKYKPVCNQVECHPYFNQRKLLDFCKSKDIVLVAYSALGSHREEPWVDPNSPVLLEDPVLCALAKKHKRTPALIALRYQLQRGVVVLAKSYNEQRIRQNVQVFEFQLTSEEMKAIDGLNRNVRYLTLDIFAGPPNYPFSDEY
Test: Inhibition of human recombinant AKR1C2 transfected in Escherichia coli BL21 (DE3) pLysS competent cells using S-tetralol as substrate assessed as inhibition of NADP+ dependent substrate oxidation incubated for 10 mins by fluorescence microplate reader assay

| COMPOUND | SUBJECT OF TEST | RESULT UNIT | IC50 |
| --- | --- | --- | --- |
| CC(C(=O)O)c1ccc(-c2cccc3ccccc23)c(F)c1 (racemic) | Aldo-keto reductase family 1 member C2 (Homo sapiens) | µM | 0.35 |
| COc1cc(C(C)C(=O)O)ccc1-c1ccc(Cl)c(Cl)c1 (racemic) | Aldo-keto reductase family 1 member C2 (Homo sapiens) | µM | 0.78 |
| CC(C(=O)O)c1ccc(-c2cccc(C(F)(F)F)c2)c(F)c1 (racemic) | Aldo-keto reductase family 1 member C2 (Homo sapiens) | µM | 0.71 |
| CCC(C(=O)O)c1ccc(-c2cc(C)cc(C)c2)c(C(F)(F)F)c1 (racemic) | Aldo-keto reductase family 1 member C2 (Homo sapiens) | µM | 0.62 |
| O=C(O)C1(c2ccc(-c3cnc4ccccc4c3)c(F)c2)CC1 | Aldo-keto reductase family 1 member C2 (Homo sapiens) | µM | 0.16 |
| CCC(C(=O)O)c1ccc(-c2cc(C(F)(F)F)cc(C(F)(F)F)c2)c(F)c1 (racemic) | Aldo-keto reductase family 1 member C2 (Homo sapiens) | µM | 1.52 |
| Cc1cc(C(C)C(=O)O)ccc1-c1cccc(C(=O)O)c1 (racemic) | Aldo-keto reductase family 1 member C2 (Homo sapiens) | µM | 4.76 |
| Cc1ccc(-c2ccc(C3(C(=O)O)CC3)cc2F)cc1F | Aldo-keto reductase family 1 member C2 (Homo sapiens) | µM | 3.28 |
| CCC(C(=O)O)c1ccc(-c2ccc3cc(OC)ccc3c2)c(C(F)(F)F)c1 (racemic) | Aldo-keto reductase family 1 member C2 (Homo sapiens) | µM | 0.24 |
| CC(C(=O)O)c1ccc(-c2ccc(C(C)(C)C)cc2)c(F)c1 (racemic) | Aldo-keto reductase family 1 member C2 (Homo sapiens) | µM | 0.24 |
| O=C(O)C1(c2ccc(-c3cc(Cl)cc(Cl)c3)c(F)c2)CC1 | Aldo-keto reductase family 1 member C2 (Homo sapiens) | µM | 1.53 |
| CC(=O)c1cccc(-c2ccc(C(C)C(=O)O)cc2C(F)(F)F)c1 (racemic) | Aldo-keto reductase family 1 member C2 (Homo sapiens) | µM | 0.64 |
| CC(C(=O)O)c1ccc(-c2cnc3ccccc3c2)c(F)c1 (racemic) | Aldo-keto reductase family 1 member C2 (Homo sapiens) | µM | 1.84 |
| CC(C(=O)O)c1ccc(-c2cccc([N+](=O)[O-])c2)c(F)c1 (racemic) | Aldo-keto reductase family 1 member C2 (Homo sapiens) | µM | 0.39 |
| Cc1cc(C(C)C(=O)O)ccc1-c1ccc(F)c(F)c1 (racemic) | Aldo-keto reductase family 1 member C2 (Homo sapiens) | µM | 0.44 |
